Target: UniProtKB P08913
Sequence (P08913 1-465): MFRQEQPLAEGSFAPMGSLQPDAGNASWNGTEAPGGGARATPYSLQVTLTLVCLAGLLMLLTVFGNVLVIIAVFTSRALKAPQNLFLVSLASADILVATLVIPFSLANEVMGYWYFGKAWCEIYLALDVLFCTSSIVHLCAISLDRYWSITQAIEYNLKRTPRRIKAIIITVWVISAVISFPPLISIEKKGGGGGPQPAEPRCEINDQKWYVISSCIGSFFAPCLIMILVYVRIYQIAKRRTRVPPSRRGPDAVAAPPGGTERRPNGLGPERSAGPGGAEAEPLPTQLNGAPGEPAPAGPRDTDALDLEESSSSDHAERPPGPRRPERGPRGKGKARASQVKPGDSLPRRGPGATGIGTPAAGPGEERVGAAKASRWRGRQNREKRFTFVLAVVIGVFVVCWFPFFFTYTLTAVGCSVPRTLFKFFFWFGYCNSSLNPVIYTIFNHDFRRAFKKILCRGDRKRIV
pEC50: −log10 of the molar value.
metric name: pEC50

- Cc1cccc(C)c1N=C1NCCCS1: 5.07

---

Record type: Log IC50 (Gi), CRE‐SPAP (with forskolin) measurement. Applies to: human α2C‐adrenoceptor (Homo sapiens, UniProt P18825)
metric name: Log IC50 (Gi), CRE‐SPAP (with forskolin)

* CC(N)C(O)c1ccc(O)c(O)c1 (stereo not drawn) [α‐methylnorepinephrine] | −6.52
* Nc1cc(Cl)c(N=C2NCCN2)c(Cl)c1 [Para‐amino‐clonidine] | −8.09
* C=CCN1CCc2nc(N)sc2CC1 [BHT920] | −7.41

---

Target: human α2C‐adrenoceptor (Homo sapiens)
Sequence (P18825 1-462): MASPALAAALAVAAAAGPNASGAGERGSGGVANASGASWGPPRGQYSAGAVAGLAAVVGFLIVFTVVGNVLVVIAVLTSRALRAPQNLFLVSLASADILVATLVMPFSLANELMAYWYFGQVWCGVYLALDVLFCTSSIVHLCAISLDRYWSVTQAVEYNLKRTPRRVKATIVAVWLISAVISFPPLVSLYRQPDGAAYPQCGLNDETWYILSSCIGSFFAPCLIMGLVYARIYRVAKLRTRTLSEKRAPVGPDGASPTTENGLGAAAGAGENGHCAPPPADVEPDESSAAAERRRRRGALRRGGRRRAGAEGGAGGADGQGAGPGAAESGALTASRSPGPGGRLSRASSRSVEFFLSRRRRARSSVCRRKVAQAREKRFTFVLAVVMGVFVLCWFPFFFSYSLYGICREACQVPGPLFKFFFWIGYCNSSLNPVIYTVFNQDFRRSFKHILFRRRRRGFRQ
Reported Log efficacy ratio (KD/IC50) values for the following compounds.
metric name: Log efficacy ratio (KD/IC50)

* C1=C(c2cnc[nH]2)c2ccsc2CC1 [RWJ52353] | 1.80
* CCN1CCc2nc(N)oc2CC1 [BHT933] | 0.62
* CCC1(c2cnc[nH]2)Cc2ccccc2C1 [Atipamezole] | −1.78
* CS(=O)(=O)Nc1c(O)ccc2c1CCCC2C1=NCCN1 (stereo not shown) [A61603] | >2.68

---

molecular target: human α2A‐adrenoceptor (Homo sapiens, UniProt P08913); assay: ERK1/2‐phosphorylation in CHO‐α2A cells; type: cell-based; parameters: expressed in transfected cells; host or cells: CHO-K1 with CRE-SPAP reporter; conditions: CHO‐α2A; read-out: Log EC50, ERK1/2‐phosphorylation (converted)
Param label: returns 1.0 when EC50 < 200 nM, returns 0.0 otherwise, including exact equality.

- c1ccc2c(c1)CCCC2C1=NCCN1 (stereo not shown) [Tetrahydrozoline]: 1.0
- CCNCC(O)c1cccc(O)c1 (stereo not shown): 0.0
- c1ccc2c(CC3=NCCN3)cccc2c1: 1.0
- COc1ccc(OC)c(C(O)C(C)N)c1 (stereo not shown): 0.0
- C1COC(NC(C2CC2)C2CC2)=N1: 1.0
- c1ccc(C2CC2)c(OCC2=NCCN2)c1: 1.0
- C[C@H](N)[C@H](O)c1cccc(O)c1: 0.0
- CCC1(c2cnc[nH]2)Cc2ccccc2C1: 1.0
- CC(CCc1ccc(O)cc1)NCCc1ccc(O)c(O)c1 (stereo not shown): 0.0
- NCC(O)c1ccc(O)cc1 (stereo not shown): 0.0

---

biological target: human α2C‐adrenoceptor (Homo sapiens, UniProt P18825); experiment: ERK1/2‐phosphorylation in CHO‐α2C cells; format: cell-based; set-up: expressed in transfected cells; host or cells: CHO-K1 with CRE-SPAP reporter
Below is a list of entries, each paired with its recorded % 10 μM PDBu, ERK1/2‐phosphorylation value.
metric name: % 10 μM PDBu, ERK1/2‐phosphorylation (%)

- CNCC(O)c1ccc(O)cc1 (centres unmarked) [Synephrine]: 112.8
- CN[C@@H](C)[C@H](O)c1ccccc1: 88.0
- Nc1cc(Cl)c(N=C2NCCN2)c(Cl)c1: 132.6
- CCC1(c2cnc[nH]2)Cc2ccccc2C1: 63.7
- Cc1cccc(C)c1N=C1NCCCS1: 168.2
- CNC[C@H](O)c1cccc(O)c1: 157.0
- C=CCN1CCc2nc(N)sc2CC1: 144.8
- Cc1cccc(C(C)c2cnc[nH]2)c1C (centres unmarked): 159.3
- C=CCc1ccccc1OC(C)C1=NCCN1 (centres unmarked): 134.5
- CC(C)NCC(O)c1ccc(O)c(O)c1 (centres unmarked): 130.7
- Cc1cccc([C@H](C)c2cnc[nH]2)c1C: 153.0

---

molecular target: human α2A‐adrenoceptor (Homo sapiens); test: 3H‐rauwolscine whole cell binding in CHO‐α2A cells; set-up: expressed in transfected cells; host or cells: CHO-K1 with CRE-SPAP reporter; conditions: 3H‐rauwolscine whole cell binding, living cells; negative log KD, mean ± SEM; read-out: Log KD, CHO‐α2A (converted)
Measured Kd values are reported for all entries that follow.
metric name: Kd (nM)

* C1COC(NC(C2CC2)C2CC2)=N1 | 1550
* c1ccc2c(c1)CCCC2C1=NCCN1 (stereo not shown) [Tetrahydrozoline] | 324
* c1ccc(C2CC2)c(OCC2=NCCN2)c1 | 417
* c1ccc2c(CC3=NCCN3)cccc2c1 | 97.7

---

target: UniProtKB P08913; conditions: CHO‐α2A; binding KD / Gi IC50 of CRE‐SPAP
metric name: Log efficacy ratio (KD/IC50)

* CCNCC(O)c1cccc(O)c1 (stereo not drawn) [Etilefrine] | 0.61
* C1COC(NC(C2CC2)C2CC2)=N1 [Rilmenidine] | 0.96
* c1ccc2c(c1)CCCC2C1=NCCN1 (stereo not drawn) [Tetrahydrozoline] | 1.18
* C[C@H](N)[C@H](O)c1cccc(O)c1 [Metaraminol] | 1.22
* c1ccc(C2CC2)c(OCC2=NCCN2)c1 [Cirazoline] | −0.16
* c1ccc2c(CC3=NCCN3)cccc2c1 [Naphazoline] | 0.78

---

Items are presented alongside their recorded Log EC50, ERK1/2‐phosphorylation.
Biological target: human α2C‐adrenoceptor (Homo sapiens)
Sequence (P18825 1-462): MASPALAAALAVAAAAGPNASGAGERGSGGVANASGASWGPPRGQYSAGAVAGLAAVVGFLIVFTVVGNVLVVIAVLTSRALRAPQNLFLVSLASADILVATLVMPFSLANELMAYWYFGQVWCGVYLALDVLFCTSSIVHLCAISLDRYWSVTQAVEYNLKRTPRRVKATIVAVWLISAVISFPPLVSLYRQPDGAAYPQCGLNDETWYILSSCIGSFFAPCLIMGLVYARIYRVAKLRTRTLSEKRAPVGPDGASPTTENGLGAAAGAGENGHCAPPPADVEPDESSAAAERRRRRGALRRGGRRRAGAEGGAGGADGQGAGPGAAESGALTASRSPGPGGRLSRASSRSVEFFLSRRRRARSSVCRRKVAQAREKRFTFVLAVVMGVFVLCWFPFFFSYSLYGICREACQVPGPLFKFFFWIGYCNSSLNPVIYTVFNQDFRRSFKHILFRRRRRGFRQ
Assay: ERK1/2‐phosphorylation in CHO‐α2C cells
Format: cell-based
Parameters: expressed in transfected cells; host or cells: CHO-K1 with CRE-SPAP reporter
Details: CHO‐α2C cells; given as negative log EC50, mean ± SEM
metric name: Log EC50, ERK1/2‐phosphorylation

- CCc1cccc(CC)c1NC1=NCCN1: −7.93
- CCN1CCc2nc(N)oc2CC1: −6.63
- Cc1sc(C)c2c1CCC=C2c1cnc[nH]1.O=C(O)/C=C\C(=O)O: −7.05
- C1=C(c2cnc[nH]2)c2ccsc2CC1: −7.74
- CS(=O)(=O)Nc1c(O)ccc2c1CCCC2C1=NCCN1 (centres unmarked): −7.26

---

Molecular target: human α2A‐adrenoceptor (Homo sapiens)
Sequence (P08913 1-465): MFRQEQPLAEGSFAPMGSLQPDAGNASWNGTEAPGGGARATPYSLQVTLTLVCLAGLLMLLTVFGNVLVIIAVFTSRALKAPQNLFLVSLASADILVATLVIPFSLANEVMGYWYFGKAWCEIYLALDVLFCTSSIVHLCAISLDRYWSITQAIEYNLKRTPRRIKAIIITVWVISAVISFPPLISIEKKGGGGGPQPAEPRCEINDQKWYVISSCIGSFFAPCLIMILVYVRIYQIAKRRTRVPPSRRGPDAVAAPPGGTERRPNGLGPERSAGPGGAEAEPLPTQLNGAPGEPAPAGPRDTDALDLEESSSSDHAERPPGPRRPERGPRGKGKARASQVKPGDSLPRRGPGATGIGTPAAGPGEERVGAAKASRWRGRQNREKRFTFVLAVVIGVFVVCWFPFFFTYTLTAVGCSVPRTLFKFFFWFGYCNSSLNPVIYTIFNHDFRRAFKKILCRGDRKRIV
Test: 3H‐rauwolscine whole cell binding in CHO‐α2A cells
Parameters: expressed in transfected cells; host or cells: CHO-K1 with CRE-SPAP reporter
Conditions: Log KD (binding)
metric name: Kd (µM)

• CC(Cc1ccc(O)cc1)NCC(O)c1cc(O)cc(O)c1 (stereo not shown) [Fenoterol] = 347
